MEASUREMENT TARGET: furin, P09958;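 note: purified furin at 1:10 enzyme:substrate in 50 mM HEPES pH 7.5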
Sequence (P09958 whole entry): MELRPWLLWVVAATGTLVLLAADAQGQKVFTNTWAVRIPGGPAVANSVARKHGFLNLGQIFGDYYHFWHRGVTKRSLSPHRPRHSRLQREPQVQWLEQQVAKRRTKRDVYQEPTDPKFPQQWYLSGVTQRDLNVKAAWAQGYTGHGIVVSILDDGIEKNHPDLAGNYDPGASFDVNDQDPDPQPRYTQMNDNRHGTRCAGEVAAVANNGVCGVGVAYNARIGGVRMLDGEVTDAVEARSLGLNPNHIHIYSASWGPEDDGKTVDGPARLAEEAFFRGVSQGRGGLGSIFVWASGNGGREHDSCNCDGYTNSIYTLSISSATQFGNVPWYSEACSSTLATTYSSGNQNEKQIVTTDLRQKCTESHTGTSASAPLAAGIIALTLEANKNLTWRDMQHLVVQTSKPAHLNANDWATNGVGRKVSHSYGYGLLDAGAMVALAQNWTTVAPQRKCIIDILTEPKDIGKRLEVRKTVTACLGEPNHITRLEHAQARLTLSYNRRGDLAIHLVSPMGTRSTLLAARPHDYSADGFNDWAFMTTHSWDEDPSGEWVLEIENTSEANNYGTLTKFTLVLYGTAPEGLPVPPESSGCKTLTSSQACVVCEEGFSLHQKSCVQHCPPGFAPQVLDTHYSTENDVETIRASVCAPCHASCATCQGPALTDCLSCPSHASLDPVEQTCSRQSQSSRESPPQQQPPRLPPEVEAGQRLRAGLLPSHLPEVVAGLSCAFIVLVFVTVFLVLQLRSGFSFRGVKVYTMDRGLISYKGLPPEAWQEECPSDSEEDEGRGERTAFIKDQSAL
TEST PROTOCOL: furin cleavage Z-score vs untreated control; higher = more cleavage, active = 3.5 or more, inactive = 1 or less, 8 variable residues between constant flanks
CONDITION DETAILS: 15 min
Some of the results follow. The true hit rate is not given.
# reported furin cleavage Z-score; entries follow

Sample records with furin cleavage Z-score:
CASLPCSAHLAGNASASA [HC2485]	0.376 (inactive)
CAGGCSGGAYAGNASASA [HC812]	-0.928 (inactive)
CADPEVVTSTAGNASASA [HC2299]	-0.261 (inactive)
CARIPREVSEAGNASASA [FS-2031]	8.89 (active)
CADPSRSRRRAGNASASA [FS-1448]	3.15
CARGARLVSEAGNASASA [FS-1708]	-0.752 (inactive)

Now look at this entry.
Request: I have this sequence here, CARVKRSRRRAGNASASA [FS-2839] , and I need its recorded furin cleavage Z-score.
Result: 10.8 (active)

Origin of the recorded values: the supplement of paper PMC3545927
